Assay: CPT-11 pharmacokinetics by SLCO1B1*5 genotype in patients
Details: human, in vivo, intravenous, 350 mg/m^2, patients with SLCO1B1*5 TT genotype
measuredAttribute: AUC (ng·h/mL)
The response must be a number in ng·h/mL with no trailing unit.

// query Determine from records and report AUC for `CCc1c2c(nc3ccc(OC(=O)N4CCC(N5CCCCC5)CC4)cc13)-c1cc3c(c(=O)n1C2)COC(=O)[C@]3(O)CC`
// result 22300

====

Experiment: CPT-11 pharmacokinetics by SLCO1B1*5 genotype in patients
Details: human, in vivo, intravenous, 350 mg/m^2, patients with SLCO1B1*5 CT+CC genotype
measuredAttribute: AUC (ng·h/mL)
Give just the numeric value; ng·h/mL need not be written.

// query Read off the recorded AUC for `CCc1c2c(nc3ccc(OC(=O)N4CCC(N5CCCCC5)CC4)cc13)-c1cc3c(c(=O)n1C2)COC(=O)[C@]3(O)CC`
// result 29500

Origin of values: patent US20090017452A1
